Tested on: Phormia regina
PROTOCOL_DESCRIPTION: Topical toxicity to Phormia regina, alone and with piperonyl butoxide
Assay type: in vivo
COND: LD50 alone / LD50 synergized with piperonyl butoxide
MEASUREMENT_TYPE: SR (synergistic ratio), Phormia regina

INSERT INTO results (molecule, target_entity, result_number) VALUES
  ('CCOc1ccc(C(Oc2ccc(C)cc2)C(Cl)(Cl)Cl)cc1 (stereo not shown)', 'Phormia regina', 1.5),
  ('CCOc1ccc(C(Oc2ccc(Cl)cc2)C(Cl)(Cl)Cl)cc1 (stereo not shown)', 'Phormia regina', 1.0),
  ('CCOc1ccc(C(Oc2ccc(OC)cc2)C(Cl)(Cl)Cl)cc1 (stereo not shown)', 'Phormia regina', 1.9),
  ('COc1ccc(OC(c2ccc(OC)cc2)C(Cl)(Cl)Cl)cc1 (stereo not shown)', 'Phormia regina', 1.5),
  ('COc1ccc(C(Oc2ccc(Cl)cc2)C(Cl)(Cl)Cl)cc1 (stereo not shown)', 'Phormia regina', 1.8),
  ('Cc1ccc(OC(c2ccc(C)cc2)C(Cl)(Cl)Cl)cc1 (stereo not shown)', 'Phormia regina', 1.35),
  ('CCOc1ccc(OC(c2ccc(OCC)cc2)C(Cl)(Cl)Cl)cc1 (stereo not shown)', 'Phormia regina', 1.0);

---

System: Musca domestica Rsp
PROTOCOL_DESCRIPTION: Topical toxicity to adult female Rsp (resistant) houseflies, alone and with piperonyl butoxide
Format: in vivo, Musca domestica L.
COND: Musca domestica; Rsp strain, topical, alone
MEASUREMENT_TYPE: LD50

INSERT INTO assay_data (compound, measurement_type, result) VALUES
  ('COc1ccc(C(Oc2ccc(Cl)cc2)C(Cl)(Cl)Cl)cc1 (stereo not shown)', 'LD50', '130 mg/kg'),
  ('Clc1ccc(OC(c2ccc(Cl)cc2)C(Cl)(Cl)Cl)cc1 (stereo not shown)', 'LD50', '> 500 mg/kg'),
  ('Cc1ccc(OC(c2ccc(C)cc2)C(Cl)(Cl)Cl)cc1 (stereo not shown)', 'LD50', '> 500 mg/kg'),
  ('COc1ccc(C(Oc2ccc(C)cc2)C(Cl)(Cl)Cl)cc1 (stereo not shown)', 'LD50', '> 500 mg/kg');

---

Tested on: Musca domestica Rsp
PROTOCOL_DESCRIPTION: Topical toxicity to adult female Rsp (resistant) houseflies, alone and with piperonyl butoxide
Format: in vivo, Musca domestica L.
COND: Rsp strain, topical, synergized with piperonyl butoxide (pb)
Protocol: The compounds of the present invention were tested for insecticidal activity by standard methods, and compared with the insecticidal activities of DDT and symmetrical analogs of DDT, such as methoxychlor. Toxicological methods for the determination of the topical LD50 values to adult female SNAIDM and PSR houseflies, Musca domestica L. and to Phormia regina, and LC50 values to clex pipiens quinquefas ciatus Say, and Anopheles albimanus Weid mosquitoes were described by Metcalf et al., 44 Bull. […]
MEASUREMENT_TYPE: Topical LD50, Musca domestica Rsp, pb (μg per g)

INSERT INTO assay_data (molecule, target_entity, measurement_type, unit, result_number) VALUES
  ('CCOc1ccc(C(Oc2ccc(C)cc2)C(Cl)(Cl)Cl)cc1 (stereo not drawn) [VIII]', 'Musca domestica Rsp', 'Topical LD50, Musca domestica Rsp, pb', 'μg per g', 22.0),
  ('COc1ccc(OC(c2ccc(OC)cc2)C(Cl)(Cl)Cl)cc1 (stereo not drawn) [II]', 'Musca domestica Rsp', 'Topical LD50, Musca domestica Rsp, pb', 'μg per g', 57.5),
  ('CCOc1ccc(C(Oc2ccc(Cl)cc2)C(Cl)(Cl)Cl)cc1 (stereo not drawn) [VI]', 'Musca domestica Rsp', 'Topical LD50, Musca domestica Rsp, pb', 'μg per g', 12.5),
  ('CCOc1ccc(OC(c2ccc(OCC)cc2)C(Cl)(Cl)Cl)cc1 (stereo not drawn) [IV]', 'Musca domestica Rsp', 'Topical LD50, Musca domestica Rsp, pb', 'μg per g', 24.5),
  ('Clc1ccc(OC(c2ccc(Cl)cc2)C(Cl)(Cl)Cl)cc1 (stereo not drawn) [I]', 'Musca domestica Rsp', 'Topical LD50, Musca domestica Rsp, pb', 'μg per g', 180),
  ('COc1ccc(C(Oc2ccc(Cl)cc2)C(Cl)(Cl)Cl)cc1 (stereo not drawn) [V]', 'Musca domestica Rsp', 'Topical LD50, Musca domestica Rsp, pb', 'μg per g', 82.5),
  ('CCOc1ccc(C(Oc2ccc(OC)cc2)C(Cl)(Cl)Cl)cc1 (stereo not drawn) [VII]', 'Musca domestica Rsp', 'Topical LD50, Musca domestica Rsp, pb', 'μg per g', 14.0),
  ('COc1ccc(C(Oc2ccc(C)cc2)C(Cl)(Cl)Cl)cc1 (stereo not drawn) [IX]', 'Musca domestica Rsp', 'Topical LD50, Musca domestica Rsp, pb', 'μg per g', 135),
  ('Cc1ccc(OC(c2ccc(C)cc2)C(Cl)(Cl)Cl)cc1 (stereo not drawn) [III]', 'Musca domestica Rsp', 'Topical LD50, Musca domestica Rsp, pb', 'μg per g', 145);

---

Tested on: Phormia regina
PROTOCOL_DESCRIPTION: Topical toxicity to Phormia regina, alone and with piperonyl butoxide
Format: in vivo
COND: topical, synergized with piperonyl butoxide (pb)
The following compounds are listed with their measured Topical LD50, Phormia regina, pb values.
MEASUREMENT_TYPE: Topical LD50, Phormia regina, pb (μg per g)

INSERT INTO results (compound, sign_qualifier, result_number) VALUES
  ('COc1ccc(C(Oc2ccc(Cl)cc2)C(Cl)(Cl)Cl)cc1 (stereo not drawn) [V]', '=', 115),
  ('CCOc1ccc(C(Oc2ccc(Cl)cc2)C(Cl)(Cl)Cl)cc1 (stereo not drawn) [VI]', '=', 31.2),
  ('CCOc1ccc(C(Oc2ccc(OC)cc2)C(Cl)(Cl)Cl)cc1 (stereo not drawn) [VII]', '=', 16.0),
  ('CCOc1ccc(C(Oc2ccc(C)cc2)C(Cl)(Cl)Cl)cc1 (stereo not drawn) [VIII]', '=', 30.0),
  ('Clc1ccc(OC(c2ccc(Cl)cc2)C(Cl)(Cl)Cl)cc1 (stereo not drawn) [I]', '>', 250),
  ('Cc1ccc(OC(c2ccc(C)cc2)C(Cl)(Cl)Cl)cc1 (stereo not drawn) [III]', '=', 100),
  ('COc1ccc(OC(c2ccc(OC)cc2)C(Cl)(Cl)Cl)cc1 (stereo not drawn) [II]', '=', 82.5),
  ('COc1ccc(C(Oc2ccc(C)cc2)C(Cl)(Cl)Cl)cc1 (stereo not drawn) [IX]', '>', 250),
  ('CCOc1ccc(OC(c2ccc(OCC)cc2)C(Cl)(Cl)Cl)cc1 (stereo not drawn) [IV]', '=', 16.5);

---

The following compounds are listed with their measured LD50 values.
Test system: Musca domestica Rsp
PROTOCOL_DESCRIPTION: Topical toxicity to adult female Rsp (resistant) houseflies, alone and with piperonyl butoxide
Assay type: in vivo, Musca domestica L.
COND: Musca domestica; Rsp strain, topical, alone
MEASUREMENT_TYPE: LD50

INSERT INTO results (compound, result) VALUES
  ('CCOc1ccc(C(Oc2ccc(Cl)cc2)C(Cl)(Cl)Cl)cc1 (centres unmarked)', '31 mg/kg'),
  ('COc1ccc(OC(c2ccc(OC)cc2)C(Cl)(Cl)Cl)cc1 (centres unmarked)', '> 500 mg/kg'),
  ('CCOc1ccc(C(Oc2ccc(C)cc2)C(Cl)(Cl)Cl)cc1 (centres unmarked)', '65 mg/kg'),
  ('CCOc1ccc(C(Oc2ccc(OC)cc2)C(Cl)(Cl)Cl)cc1 (centres unmarked)', '90 mg/kg'),
  ('CCOc1ccc(OC(c2ccc(OCC)cc2)C(Cl)(Cl)Cl)cc1 (centres unmarked)', '42 mg/kg');

---

Test system: Musca domestica SNAIDM
PROTOCOL_DESCRIPTION: Topical toxicity to adult female SNAIDM (susceptible) houseflies, alone and with piperonyl butoxide
Assay type: in vivo, Musca domestica L.
COND: SNAIDM strain, topical, synergized with piperonyl butoxide (pb)
The following compounds are listed with their measured Topical LD50, Musca domestica SNAIDM, pb values.
MEASUREMENT_TYPE: Topical LD50, Musca domestica SNAIDM, pb (μg per g)

INSERT INTO results (compound, unit, result_number) VALUES
  ('COc1ccc(OC(c2ccc(OC)cc2)C(Cl)(Cl)Cl)cc1 (stereo not drawn)', 'μg per g', 14.0),
  ('Cc1ccc(OC(c2ccc(C)cc2)C(Cl)(Cl)Cl)cc1 (stereo not drawn)', 'μg per g', 90),
  ('COc1ccc(C(Oc2ccc(C)cc2)C(Cl)(Cl)Cl)cc1 (stereo not drawn)', 'μg per g', 39.0),
  ('CCOc1ccc(C(Oc2ccc(Cl)cc2)C(Cl)(Cl)Cl)cc1 (stereo not drawn)', 'μg per g', 9.5),
  ('CCOc1ccc(C(Oc2ccc(C)cc2)C(Cl)(Cl)Cl)cc1 (stereo not drawn)', 'μg per g', 20.5),
  ('COc1ccc(C(Oc2ccc(Cl)cc2)C(Cl)(Cl)Cl)cc1 (stereo not drawn)', 'μg per g', 17.0),
  ('CCOc1ccc(C(Oc2ccc(OC)cc2)C(Cl)(Cl)Cl)cc1 (stereo not drawn)', 'μg per g', 5.0),
  ('Clc1ccc(OC(c2ccc(Cl)cc2)C(Cl)(Cl)Cl)cc1 (stereo not drawn)', 'μg per g', 90),
  ('CCOc1ccc(OC(c2ccc(OCC)cc2)C(Cl)(Cl)Cl)cc1 (stereo not drawn)', 'μg per g', 13.0);
